// reported IC50 per item
experiment: Antiproliferative activity against human NCI-H1688 cells assessed as reduction in cell viability incubated for 24 hrs by CCK-8 assay; format: functional, cell-based; details: NCI-H1688, 24 h
Numeric only. Scale: µM

>  <compound>
C[S+]([O-])CCCCN=C=S (stereo not drawn) [SULFORAPHANE]

>  <measurement type>
IC50

>  <units text>
µM

>  <measured number>
16.8

$$$$

Attention now shifts to the item below.
## Input Consider the compound shown here: C=CCc1ccc(O)c(-c2cc(CC=C)ccc2OCC[S+]([O-])CCCCN=C=S)c1 (stereo not drawn) What is its recorded IC50?
## Output 12.8
